Recorded measurements of Human Primary Hepatocyte Editing % 2500, one per entry
# Test system: PCSK9 gene
# assay comment: PCSK9 gRNA/SpCas9 editing in primary human hepatocytes (Tables 2, 4)
# Format: cell-based
# settings: 2500 ng/RNA/mL; SpCas9 mRNA MS002 1:1 by weight
# Procedure: In set of experiments, PCSK9 gRNAs were co-transfected with an equivalent amount (1:1 ratio by weight) of in vitro transcribed commercially available SpCas9 mRNA MS002 purchased from TriLink Biotechnologies into primary human hepatocytes at 2500, 500, or 100 ng/RNA/mL and processed as described in detailed methods. Extracted genomic DNA was analyzed for gene editing at the target site with next-generation sequencing of PCR amplicons generated around the target sites. […]
In the oligonucleotide strings, read from the 5' end, every base follows the letter of its sugar. An asterisk marks phosphorothioate; unmarked linkages are phosphodiester. Other units and linkages are bracketed, terminal groups are in braces. A string of capitals states the bases alone. m = 2'-O-methyl; r = 2'-OH (RNA)

# molecule, units text, Human Primary Hepatocyte Editing % 2500
records = [
    ("GA234: PCSK9 gRNA; protospacer CGCCTGCCAGCGCCTGGCGA (SEQ ID NO: 252) (nucleic acid) guide: mC*mG*mC*rCrUrGrCrCrArGrCrGrCrCrUrGrGrCrGrArGrUrUrUrUrArGrArGrCrUrArGrArArArUrArGrCrArArGrUrUrArArArArUrArArGrGrCrUrArGrUrCrCrGrUrUrArUrCrArArCrUrUrGrArArArArArGrUrGrGrCrArCrCrGrArGrUrCrGrGrUrGrCrU*mU*mU*mU", "%", 5.45),
    ("GA208: PCSK9 gRNA; protospacer CCAGCATACAGAGTGACCAC (SEQ ID NO: 202) (nucleic acid, sugars from the 5' end m3 r94 m3, linkages s3 o93 s3 (s phosphorothioate, o phosphodiester), T or U not given here) guide: CCAGCAUACAGAGUGACCACGUUUUAGAGCUAGAAAUAGCAAGUUAAAAUAAGGCUAGUCCGUUAUCAACUUGAAAAAGUGGCACCGAGUCGGUGCUUUU", "%", 25.76),
    ("GA212: PCSK9 gRNA; protospacer CGGGATGCCGGCGTGGCCAA (SEQ ID NO: 206) (nucleic acid, sugars from the 5' end m3 r94 m3, linkages s3 o93 s3 (s phosphorothioate, o phosphodiester), T or U not given here) guide: CGGGAUGCCGGCGUGGCCAAGUUUUAGAGCUAGAAAUAGCAAGUUAAAAUAAGGCUAGUCCGUUAUCAACUUGAAAAAGUGGCACCGAGUCGGUGCUUUU", "%", 12.45),
]
